- Measurement Protocol: gradient 5% acetonitrile 3 min, to 50% in 2 min, to 85% in 15 min, held 3 min, 100 µL/min
- Condition: column: Zorbax Extend-C18 2.1 x 50 mm; eluents: water / acetonitrile, 0.1% formic acid
Endpoint: RP-LC retention time (s)

>>> value_reported("CC(=O)N1CCCC(C(=O)N2CCOCC2)C1 (stereo not given)")
554

(1) CC(=O)Nc1nsc(N2CCC(C(=O)NCc3cccs3)CC2)n1
(2) Cc1nc(-c2csc(S(=O)(=O)N3CCCC(C(=O)Nc4ccccc4F)C3)c2)no1 (stereo not given)
So which one has the bigger RP-LC retention time here, 1 or 2 ? To answer, give the label that identifies your chosen option.
2
(2: 929 s, 1: 610 s)

(1) CCc1nc2cccnc2n1CCN1CCN(C(=O)Nc2ccc(Br)cc2)CC1
(2) COc1ccccc1N1CCN(c2cc(SCC(=O)NCc3ccccc3Cl)ncn2)CC1
Would you kindly point out which of 1 and 2 has the smaller RP-LC retention time figure? To answer, give the label that identifies your chosen option.
1

(A) COc1cccc(NC(=O)N2CCC3(CC2)NC(=O)c2ccc(Cl)cc2N3C)c1
(B) CCc1nc2cc(-c3noc(-c4ccc(CS(=O)(=O)c5ccccc5)cc4)n3)ccc2o1
Would you kindly point out which of A and B has the smaller RP-LC retention time figure? To answer, give the label that identifies your chosen option.
A
